// provenance: patent EP4722208A1

# target: Recombinant NAMPT protein (Homo sapiens, UniProt P43490)
# Sequence (P43490 whole entry): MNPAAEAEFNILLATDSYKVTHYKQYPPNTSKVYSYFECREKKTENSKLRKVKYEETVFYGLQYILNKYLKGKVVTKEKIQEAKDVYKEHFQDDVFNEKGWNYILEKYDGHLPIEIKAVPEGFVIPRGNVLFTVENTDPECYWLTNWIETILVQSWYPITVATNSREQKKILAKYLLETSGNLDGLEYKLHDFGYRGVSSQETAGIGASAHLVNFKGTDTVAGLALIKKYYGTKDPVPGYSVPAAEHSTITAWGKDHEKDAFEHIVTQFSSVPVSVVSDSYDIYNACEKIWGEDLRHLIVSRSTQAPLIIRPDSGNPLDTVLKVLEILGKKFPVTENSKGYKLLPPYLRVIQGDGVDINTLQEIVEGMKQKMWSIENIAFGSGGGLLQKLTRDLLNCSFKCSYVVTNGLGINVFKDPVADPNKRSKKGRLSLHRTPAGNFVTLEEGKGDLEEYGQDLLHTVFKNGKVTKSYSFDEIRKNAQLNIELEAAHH
# test-description: NAMPT enzyme inhibition assay (BPS bioscience NAMPT Inhibitor Screening Assay Kit, fluorescence)
# measurement-conditions: 30 min pre-incubation, 2 h at 30°C, compound 1000 nM to 3 nM, n=2
pIC50: −log10 of the molar value.
readout-type: pIC50

1. Cn1ccc(CS(=O)(=O)c2ccc(C(=O)NCCCc3cn[nH]c3)cc2C#Cc2ccc(OC(F)(F)F)cc2)n1; ≤ 6.00
2. Nc1ccc(CS(=O)(=O)c2ccc(C(=O)NCc3ccn4ccnc4c3)cc2C#Cc2ccc(F)cc2)cc1; > 6.30

Identify measured pIC50 obtained with Recombinant NAMPT protein (Homo sapiens, UniProt P43490) for O=C(NCCCc1cn[nH]c1)c1ccc(S(=O)(=O)Cc2ccn(-c3ccncc3)n2)c(C#Cc2ccc(F)cc2)c1 .
> 6.30

Quote Recombinant NAMPT protein (Homo sapiens, UniProt P43490) pIC50 for entry CN(C)c1ccc(C#Cc2cc(C(=O)NCCCc3cn[nH]c3)ccc2S(=O)(=O)Cc2ccn(C)n2)cc1 .
≤ 6.00

Report the value of pIC50 obtained on Recombinant NAMPT protein (Homo sapiens, UniProt P43490) for Cn1ccc(CS(=O)(=O)c2ccc(C(=O)NCCc3ccc(N)nc3)cc2C#Cc2ccc(F)cc2)n1 .
≤ 6.00

Report its pIC50 with Recombinant NAMPT protein (Homo sapiens, UniProt P43490) as the test system: Cn1ccc(CS(=O)(=O)c2ccc(C(=O)NCc3ccn4ccnc4c3)cc2C#Cc2ccc(C(=O)NCCN3CCNCC3)cc2)n1
≤ 6.00

State the measured pIC50 (Recombinant NAMPT protein (Homo sapiens, UniProt P43490)) of O=C(NCCCc1cn[nH]c1)c1ccc(S(=O)(=O)Cc2cccc(C(F)(F)F)c2)c(C#Cc2ccc(F)cc2)c1
6.00 to 6.30
